Tested on: ACHN renal
Assay: NCI tumour cell line growth inhibition, 48 h
TGI values by entry

# molecule, TGI
rows = [
    ("C=C(C)c1cc(C(C)(C)C)cc(C(=C)C)c1S(C)(=O)=O", "> 100 µM"),
    ("COc1ccc(/C=C/C2C(C#N)=C(N)OC3=C2C(=O)CCC3)cc1 (stereo not given)", "33.7 µM"),
    ("CCOC(=O)[C@@H]1[C@@H]2NC(=O)N[C@@]1(C)Oc1ccccc12", "> 100 µM"),
    ("COC(=O)/C=C1/SC(=Nc2ccc(F)cc2)N(CCc2c[nH]c3ccc(O)cc23)C1=O", "> 100 µM"),
    ("N#CC(C#N)=Cc1c[nH]c(=O)[nH]c1=O", "> 100 µM"),
    ("Cc1[nH]n(-c2ncc(C(=O)O)c(=O)[nH]2)c(=O)c1CCO", "> 100 µM"),
    ("Cc1cccc2nc3cccc(C(=O)NCCC[N+](C)(CCCNC(=O)c4cccc5nc6cccc(C)c6nc45)Cc4ccc([N+](=O)[O-])n4C)c3nc12", "> 100 µM"),
    ("Nc1c(C(=O)c2cccc(OC[C@@H](O)CO)c2)cnn1-c1ccc(F)cc1", "> 25 µM"),
    ("O=C1OC2C=CCC1C2 (stereo not given)", "> 100 µM"),
    ("CCn1c(=O)c2cn[nH]c2n(C)c1=O", "> 100 µM"),
]
